Target: 72 kDa type IV collagenase (Homo sapiens)
Sequence (P08253 whole entry): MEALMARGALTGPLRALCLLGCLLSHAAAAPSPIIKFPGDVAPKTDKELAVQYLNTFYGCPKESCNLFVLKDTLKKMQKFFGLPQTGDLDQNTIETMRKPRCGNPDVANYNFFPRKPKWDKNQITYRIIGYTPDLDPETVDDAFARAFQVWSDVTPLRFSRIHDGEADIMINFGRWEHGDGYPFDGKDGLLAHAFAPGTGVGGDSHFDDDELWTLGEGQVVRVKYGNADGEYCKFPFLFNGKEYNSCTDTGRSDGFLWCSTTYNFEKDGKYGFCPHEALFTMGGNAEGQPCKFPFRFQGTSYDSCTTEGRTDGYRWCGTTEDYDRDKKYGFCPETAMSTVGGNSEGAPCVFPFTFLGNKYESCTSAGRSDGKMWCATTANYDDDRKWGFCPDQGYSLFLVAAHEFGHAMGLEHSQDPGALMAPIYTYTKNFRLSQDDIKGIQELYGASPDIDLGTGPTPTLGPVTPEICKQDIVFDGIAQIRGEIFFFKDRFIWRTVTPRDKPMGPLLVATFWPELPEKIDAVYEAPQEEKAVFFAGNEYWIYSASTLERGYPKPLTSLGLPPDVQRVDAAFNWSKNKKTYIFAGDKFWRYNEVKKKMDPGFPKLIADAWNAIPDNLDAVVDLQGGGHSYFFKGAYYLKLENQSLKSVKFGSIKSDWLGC
pIC50: −log10 of the molar value.
Please enter Criterion met where pIC50 is greater than or equal to 8, and Criterion not met where it is lower.

| MOLECULE | DISCRETE LABEL |
| --- | --- |
| COc1ccc(S(=O)(=O)N2CC(C)(C)C([C@H](O)CSc3ccccc3)[C@@H]2C(=O)NO)cc1 (stereo partly specified) | Criterion met |
| COc1ccc(S(=O)(=O)N2CC(C)(C)C(COCc3ccccc3)[C@@H]2C(=O)NO)cc1 (stereo partly specified) | Criterion not met |
| COc1ccc(CSCC2[C@H](C(=O)NO)N(S(=O)(=O)c3ccc(OC)cc3)CC2(C)C)cc1 (stereo partly specified) | Criterion met |

Now for another entry.
input: Could you tell me if the measured pIC50 of COc1ccc(S(=O)(=O)N2CC(C)(C)C(CO)[C@@H]2C(=O)NO)cc1 (stereo partly specified) reaches 8 or more?
output: Criterion not met

* * *

Test system Stromelysin-1 (Homo sapiens, UniProt P08254), pIC50 listed for each of the compounds.
Please keep in mind that pIC50 is minus log10 of the molar concentration; only the number is needed.

| COMPOUND | pIC50 |
| --- | --- |
| COc1ccc(S(=O)(=O)N2CC(C)(C)C([C@H](O)CSc3ccccc3)[C@@H]2C(=O)NO)cc1 (stereo partly specified) | 8.52 |
| COc1ccc(S(=O)(=O)N2CC(C)(C)C(CSCCc3ccccc3)[C@@H]2C(=O)NO)cc1 (stereo partly specified) | 8.19 |
| COc1ccc(S(=O)(=O)N2CC(C)(C)C(COCc3ccccc3)[C@@H]2C(=O)NO)cc1 (stereo partly specified) | 8.00 |
| COc1ccc(S(=O)(=O)N2CC(C)(C)C(CSCc3ccccc3)[C@@H]2C(=O)NO)cc1 (stereo partly specified) | 8.17 |
| C=CC1[C@H](C(=O)NO)N(S(=O)(=O)c2ccc(OC)cc2)CC1(C)C (stereo partly specified) | 6.53 |

Let us move to another entry and its pIC50.
input: Value wanted: pIC50 (Stromelysin-1 (Homo sapiens, UniProt P08254)) of entry COc1ccc(CSCC2[C@H](C(=O)NO)N(S(=O)(=O)c3ccc(OC)cc3)CC2(C)C)cc1 (stereo partly specified)
output: 7.78

* * *

Sequence of the target: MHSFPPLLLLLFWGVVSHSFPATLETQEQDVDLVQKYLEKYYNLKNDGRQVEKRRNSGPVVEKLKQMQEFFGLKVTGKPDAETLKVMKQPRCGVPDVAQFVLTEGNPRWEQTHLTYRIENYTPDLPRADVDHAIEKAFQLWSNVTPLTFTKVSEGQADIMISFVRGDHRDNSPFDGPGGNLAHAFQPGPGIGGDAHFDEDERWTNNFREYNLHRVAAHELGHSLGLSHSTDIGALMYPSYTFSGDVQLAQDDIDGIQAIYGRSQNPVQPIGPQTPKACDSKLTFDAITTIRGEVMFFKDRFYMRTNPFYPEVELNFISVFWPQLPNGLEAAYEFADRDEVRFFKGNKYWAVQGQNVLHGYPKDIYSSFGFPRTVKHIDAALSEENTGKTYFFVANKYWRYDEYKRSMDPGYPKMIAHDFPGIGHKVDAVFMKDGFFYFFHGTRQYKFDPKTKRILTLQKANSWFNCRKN
RECORDED ENDPOINT: pIC50
Please keep in mind that pIC50 is minus log10 of the molar concentration; only the number is needed.

Solved entries:
| COMPOUND | RECORDED ENDPOINT | MEASURED VALUE |
| --- | --- | --- |
| COc1ccc(S(=O)(=O)N2CC(C)(C)C(COCc3ccccc3)[C@@H]2C(=O)NO)cc1 (some centres undefined) | pIC50 | 5.79 |
| COc1ccc(S(=O)(=O)N2CC(C)(C)C(CSCCc3ccccc3)[C@@H]2C(=O)NO)cc1 (some centres undefined) | pIC50 | 6.18 |
| COc1ccc(S(=O)(=O)N(CC(C)C)[C@H](CCSCc2ccccc2)C(=O)NO)cc1 | pIC50 | 6.98 |

input: Any idea what pIC50 was measured for COc1ccc(S(=O)(=O)N2CC(C)(C)C([C@H](O)CSc3ccccc3)[C@@H]2C(=O)NO)cc1 (some centres undefined) ?
output: 6.93

* * *

Test system Collagenase 3 (Homo sapiens, UniProt P45452), pIC50 listed for each of the molecules.
Please keep in mind that pIC50 is minus log10 of the molar concentration; only the number is needed.

| MOLECULE | TGT | pIC50 |
| --- | --- | --- |
| COc1ccc(S(=O)(=O)N2CC(C)(C)C([C@H](O)CSc3ccccc3)[C@@H]2C(=O)NO)cc1 (some centres not stated) | Collagenase 3 (Homo sapiens, UniProt P45452) | 8.43 |
| C=CC1[C@H](C(=O)NO)N(S(=O)(=O)c2ccc(OC)cc2)CC1(C)C (some centres not stated) | Collagenase 3 (Homo sapiens, UniProt P45452) | 6.28 |
| COc1ccc(S(=O)(=O)N2CC(C)(C)C(CSCCc3ccccc3)[C@@H]2C(=O)NO)cc1 (some centres not stated) | Collagenase 3 (Homo sapiens, UniProt P45452) | 7.77 |
| COc1ccc(S(=O)(=O)N(CC(C)C)[C@H](CCSCc2ccccc2)C(=O)NO)cc1 | Collagenase 3 (Homo sapiens, UniProt P45452) | 7.92 |
| COc1ccc(S(=O)(=O)N2CC(C)(C)C(COCc3ccccc3)[C@@H]2C(=O)NO)cc1 (some centres not stated) | Collagenase 3 (Homo sapiens, UniProt P45452) | 7.35 |
| COc1ccc(S(=O)(=O)N2CC(C)(C)C(CO)[C@@H]2C(=O)NO)cc1 (some centres not stated) | Collagenase 3 (Homo sapiens, UniProt P45452) | 6.66 |

Let us move to another entry and its pIC50.
input: Any idea what pIC50 was measured for COc1ccc(S(=O)(=O)N2CC(C)(C)C(CSCc3ccccc3)[C@@H]2C(=O)NO)cc1 (some centres not stated) ?
output: 8.26

* * *

Molecular target: Matrix metalloproteinase-9 (Homo sapiens, UniProt P14780)
Sequence (P14780 whole entry): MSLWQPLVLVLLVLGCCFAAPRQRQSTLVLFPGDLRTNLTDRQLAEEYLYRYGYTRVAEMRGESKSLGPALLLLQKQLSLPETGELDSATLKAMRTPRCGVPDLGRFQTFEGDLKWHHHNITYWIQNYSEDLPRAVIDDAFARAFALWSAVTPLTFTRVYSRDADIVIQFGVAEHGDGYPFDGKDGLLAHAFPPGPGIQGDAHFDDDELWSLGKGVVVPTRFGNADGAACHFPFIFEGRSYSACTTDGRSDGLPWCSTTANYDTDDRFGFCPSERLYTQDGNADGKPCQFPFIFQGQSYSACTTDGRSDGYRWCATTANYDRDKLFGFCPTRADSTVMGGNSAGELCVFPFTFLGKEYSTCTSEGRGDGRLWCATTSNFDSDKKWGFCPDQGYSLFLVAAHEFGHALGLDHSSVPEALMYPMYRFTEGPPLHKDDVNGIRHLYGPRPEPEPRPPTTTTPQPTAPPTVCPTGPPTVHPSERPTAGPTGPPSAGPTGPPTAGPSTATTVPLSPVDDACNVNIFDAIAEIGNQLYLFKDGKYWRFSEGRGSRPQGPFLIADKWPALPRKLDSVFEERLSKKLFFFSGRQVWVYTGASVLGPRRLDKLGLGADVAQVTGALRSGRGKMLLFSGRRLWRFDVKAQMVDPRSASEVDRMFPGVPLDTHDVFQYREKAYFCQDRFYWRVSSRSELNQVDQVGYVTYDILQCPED
Rule: IC50 below 4 nM gives Satisfied. Equal to or above 4 nM gives Not satisfied.

| COMPOUND | DISCRETE LABEL |
| --- | --- |
| C=CC1[C@H](C(=O)NO)N(S(=O)(=O)c2ccc(OC)cc2)CC1(C)C (stereo not given in full) | Not satisfied |
| COc1ccc(S(=O)(=O)N2CC(C)(C)C(COCc3ccccc3)[C@@H]2C(=O)NO)cc1 (stereo not given in full) | Not satisfied |
| COc1ccc(S(=O)(=O)N2CC(C)(C)C([C@@H](O)CSc3ccccc3)[C@@H]2C(=O)NO)cc1 (stereo not given in full) | Satisfied |

input: hey, is IC50 for COc1ccc(CSCC2[C@H](C(=O)NO)N(S(=O)(=O)c3ccc(OC)cc3)CC2(C)C)cc1 (stereo not given in full) lower than 4 nM or not?
output: Not satisfied

input: hey, is IC50 for COc1ccc(S(=O)(=O)N2CC(C)(C)C(CSCCc3ccccc3)[C@@H]2C(=O)NO)cc1 (stereo not given in full) lower than 4 nM or not?
output: Satisfied
